Give measured IC50 for each item. Keep answers brief.
# study-system: full-length beta-Catenin (Uniprot ID P35222) (Homo sapiens (Human)) (UniProt P35222)
# test-method-notes: fluorescence polarization competition; full-length beta-catenin, competitor 5FAM-TCF4(10-53)
Starred links: 1 amine or outer side, 2 acyl side, 3 side chain; linkers in the order of their positions; H or OH if unused. Positions of bridges follow the written chain, without caps; N, C: chain ends. Non-standard residues stand in square brackets, D forms with d. Primed or numbered codes have the meaning given here. No end group written: not given here. *: point of attachment. PyrS2″ = (S)-3-amino-1-((pent-4-en-1-yloxy)carbonyl)pyrrolidine-3-carboxylic acid (stapling residue), C=CCCCOC(=O)N1CC[C@@](N[*:1])(C(=O)[*:2])C1; B5(4) = 2,2-bis(4-pentenyl)glycine = 2-amino-2-(pent-4-en-1-yl)hept-6-enoic acid (stitching residue), C=CCCCC(CCCC=C)(N[*:1])C(=O)[*:2]; B5(5) = 2,2-bis(4-pentenyl)glycine, 2-amino-2-(pent-4-en-1-yl)hept-6-enoic acid (stitching residue), C=CCCCC(CCCC=C)(N[*:1])C(=O)[*:2]; TfeGA = (S)-2-amino-3-((carboxymethyl)(2,2,2-trifluoroethyl)amino)propanoic acid, O=C([C@H](CN(CC(=O)[*:3])CC(F)(F)F)N[*:1])[*:2]; B5(3) = 2,2-bis(4-pentenyl)glycine (stitching residue), C=CCCCC(CCCC=C)(N[*:1])C(=O)[*:2]; ProSAm3 = (allylsulfonyl)-D-proline, C=CCS(=O)(=O)N1CCC[C@@H]1C(=O)*; Phe(3-COOH) = N[C@@H](Cc1cccc(C(=O)O)c1)C(=O)O; Phe(2-CF3) = N[C@@H](Cc1ccccc1C(F)(F)F)C(=O)O; Bta = N[C@@H](Cc1csc2ccccc12)C(=O)O; Lys(iPr) = CC(C)NCCCC[C@H](N)C(=O)O; αAllylPro = C=CC[C@@]1(C(=O)O)CCCN1; tBuAla = CC(C)(C)C[C@H](N)C(=O)O; 3Thi = N[C@@H](Cc1ccsc1)C(=O)O; Ac5c = NC1(C(=O)O)CCCC1
Hi! Could you send only the number? It should be in nM, unit omitted.

Quickly give me recorded IC50 for Ac-[αAllylPro]D[tBuAla][B5(5)]D[TfeGA][Lys(iPr)]AFL[PyrS2″][3Thi][Bta]V-NH2 (staple 1-4, 4-11) [I-1763]
52

Quickly give me recorded IC50 for Ac-[αAllylPro]D[tBuAla][B5(5)]D[Phe(3-COOH)]AAFL[PyrS2″][Phe(2-CF3)][Bta]QL[Ac5c]-NH2 (staple 1-4, 4-11) [I-2387]
120

Quickly give me recorded IC50 for [ProSAm3]D[tBuAla][B5(3)]D[TfeGA]AAFL[PyrS2″][3Thi][Bta]Q-NH2 (staple (positions not given here); staple 4-11; not fully specified (bridges); also: staple double bonds reduced to -CH2-CH2-) [I-2267]
499

Quickly give me recorded IC50 for Ac-[αAllylPro]D[tBuAla][B5(4)]D[TfeGA][Lys(iPr)]AFT[PyrS2″][3Thi][Bta]L-NH2 (staple 1-4, 4-11; also: -CH=CH- in each staple reduced to -CH2-CH2-) [I-1766]
267
